- TARGET: T1, Nbp2, Q12163
- T1 sequence (Q12163 103-180, looked up): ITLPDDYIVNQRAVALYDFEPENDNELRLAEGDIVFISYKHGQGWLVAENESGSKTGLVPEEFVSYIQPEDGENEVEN
- TEST_DETAILS: SPOT array
- MEASUREMENT_SETUP: median of control spots 357
Criterion: SPOT intensity strictly under 1. Met: fulfilled. Not met: not fulfilled.

Q. Report whether reported SPOT intensity is lower than 1 (strictly) for TSIEIPKRSPLRFTS
A. fulfilled

Q. Report whether reported SPOT intensity is lower than 1 (strictly) for DLFKPLPEPPTELGR
A. fulfilled

Q. Report whether reported SPOT intensity is lower than 1 (strictly) for GSKSGPPPRPKKPST
A. fulfilled

Q. Report whether reported SPOT intensity is lower than 1 (strictly) for APPPPPRRATPEKKP
A. fulfilled

Q. Report whether reported SPOT intensity is lower than 1 (strictly) for RRARRQMGIPTISQV
A. not fulfilled

Q. Report whether reported SPOT intensity is lower than 1 (strictly) for LKHGWKPLRPIKLIS
A. not fulfilled

Q. Report whether reported SPOT intensity is lower than 1 (strictly) for KRRTSLFPWLHKPGI
A. not fulfilled

Q. Report whether reported SPOT intensity is lower than 1 (strictly) for LKPPIGRPPKFPKSP
A. fulfilled

Q. Report whether reported SPOT intensity is lower than 1 (strictly) for GTIARPLFLVVLFFI
A. fulfilled

Q. Report whether reported SPOT intensity is lower than 1 (strictly) for VQQDSLPKLPFRSWG
A. fulfilled

Q. Report whether reported SPOT intensity is lower than 1 (strictly) for SRYRRPLTLLLLKPF
A. not fulfilled

Q. Report whether reported SPOT intensity is lower than 1 (strictly) for MTKTPETSPPKRPMG
A. fulfilled

Q. Report whether reported SPOT intensity is lower than 1 (strictly) for TKFRISLGLPVGAIM
A. not fulfilled

Q. Report whether reported SPOT intensity is lower than 1 (strictly) for RAPPPVPKKPSSRIA
A. not fulfilled

Q. Report whether reported SPOT intensity is lower than 1 (strictly) for QQEQNTPPLPPKPKS
A. fulfilled

Q. Report whether reported SPOT intensity is lower than 1 (strictly) for LLGRKRPVMERVVDI
A. fulfilled

Q. Report whether reported SPOT intensity is lower than 1 (strictly) for YRRKSIPFAPHQITA
A. fulfilled

Q. Report whether reported SPOT intensity is lower than 1 (strictly) for GATNNAPTLPKRKNP
A. fulfilled

Q. Report whether reported SPOT intensity is lower than 1 (strictly) for QLMKNLPKIPLLNDI
A. not fulfilled

Q. Report whether reported SPOT intensity is lower than 1 (strictly) for QRIRKIPGIPLMSVG
A. not fulfilled

Q. Report whether reported SPOT intensity is lower than 1 (strictly) for VPPPMQPPPIESSNL
A. not fulfilled

Q. Report whether reported SPOT intensity is lower than 1 (strictly) for NNFYRPLLRSVLVLL
A. not fulfilled

Q. Report whether reported SPOT intensity is lower than 1 (strictly) for RSVKRPRRAPRPVVS
A. not fulfilled

Q. Report whether reported SPOT intensity is lower than 1 (strictly) for VRVKKRPLIRPLNSS
A. not fulfilled

Q. Report whether reported SPOT intensity is lower than 1 (strictly) for EQEEIAPSLPSRNSI
A. fulfilled

Q. Report whether reported SPOT intensity is lower than 1 (strictly) for NVLRKILEIPLHSFS
A. fulfilled
